target: M1 muscarinic receptor (Homo sapiens, UniProt P11229); construct: expressed in transfected cells; host or cells: CHO (M1-CHO); test: Functional mobilization of intracellular calcium (FLIPR) in M1-CHO cells; type: cell-based; conditions: M1 receptor, calcium mobilization; read-out: M1 Efficacy
Sequence (P11229 whole entry): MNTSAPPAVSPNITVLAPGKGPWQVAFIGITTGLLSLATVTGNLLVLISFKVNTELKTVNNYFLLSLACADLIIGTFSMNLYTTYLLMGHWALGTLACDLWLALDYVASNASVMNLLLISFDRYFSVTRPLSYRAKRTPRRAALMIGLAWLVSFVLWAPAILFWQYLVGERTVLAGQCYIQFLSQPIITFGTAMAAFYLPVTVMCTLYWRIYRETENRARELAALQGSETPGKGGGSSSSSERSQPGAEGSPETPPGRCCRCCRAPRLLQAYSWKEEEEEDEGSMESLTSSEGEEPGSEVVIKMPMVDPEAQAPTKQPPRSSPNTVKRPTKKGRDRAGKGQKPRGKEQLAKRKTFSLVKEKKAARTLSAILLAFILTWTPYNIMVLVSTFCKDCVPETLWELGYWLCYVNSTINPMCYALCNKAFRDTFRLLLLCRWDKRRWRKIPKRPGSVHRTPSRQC
Property measured: Emax

Request the reported Emax associated with O=C(OCC1CCCO1)N1C2CCC1CC(N1CCC3(CC1)COc1ccc(F)cc13)C2 (stereo not shown) [compound 363] < 65%

Same for CCOC(=O)N1CCC(N2CCC3(CC2)CN(C(=O)c2ccno2)c2ccc(F)cc23)CC1 [compound 321] 65 to 85%

Same for CCCOC(=O)N1CCC(CN2CCC3(CC2)CN(C(C)=O)c2ccc(C)cc23)CC1 [compound 306] < 65%

Same for COCCOC(=O)N1CCCC(N2CCC3(CC2)CN(C(C)=O)c2ccc(F)cc23)CC1 (stereo not shown) [compound 65] 65 to 85%
